TEST: Toxicity liver stage against HepG2, at 10uM
Assay type: cell-based
Design: test concentration 10 uM, cell line HepG2-A16-CD81EGFP
REPORTED_CONDITIONS: human, HepG2-A16-CD81EGFP cells; read-out: INHIBITION
Quick reference for cytotoxicity at 10 µM among some compounds
READOUT: cytotoxicity at 10 µM (%)

- COMPOUND: "CS(=O)(=O)N1CCC(c2cnc(-c3cn[nH]c3)cn2)CC1"
  VAL: 3.64
- COMPOUND: "CCCc1cc(C(=O)N2CCC3(CCCN(CCOC)C3=O)C2)cs1 (centres undefined)"
  VAL: -167
- COMPOUND: "O=C1CC(CNc2cncc(Br)c2)c2ccccc2N1 (centres undefined)"
  VAL: -5.19
- COMPOUND: "CCC(=O)N1CCOC(c2cc(Nc3nncs3)cc(C)n2)C1 (centres undefined)"
  VAL: 5.67
- COMPOUND: "Cc1ncsc1C(=O)N(C)Cc1ccc(Br)o1"
  VAL: -39.3
- COMPOUND: "COc1ccc(CNC(=O)NC(C)Cn2cccn2)cc1O (centres undefined)"
  VAL: -3.1
- COMPOUND: "Cc1ccc(CN2CCC(F)(F)C3(CCN(c4cnccn4)C3)C2)o1 (centres undefined)"
  VAL: -3.71
- COMPOUND: "Cc1n[nH]c(C)c1C1CCCN1C(=O)c1coc(Br)c1 (centres undefined)"
  VAL: 4.23
- COMPOUND: "Cc1nnc(CN(C)C(=O)C(CC(C)C)N2CCCCC2=O)n1C (centres undefined)"
  VAL: -1.88
- COMPOUND: "Cc1cc(C(=O)NCCC(C)C)ccc1NS(C)(=O)=O"
  VAL: 7.04
- COMPOUND: "CCOCC1CN(C(=O)COc2ccccc2)Cc2cn(C)nc21 (centres undefined)"
  VAL: 9.08
- COMPOUND: "Cc1ncc(-c2ccnc(SCCN(C)C)n2)c(-c2ccco2)n1"
  VAL: -7.25
- COMPOUND: "O=C(NCc1cc[nH]n1)NCC(O)c1ccc(F)c(F)c1 (centres undefined)"
  VAL: -21
- COMPOUND: "CC(C)c1nn(C)c(N(C)C)c1CNCc1ccc2c(c1)OCO2"
  VAL: -5.58
- COMPOUND: "O=C(CCC1CCCO1)NCc1ccnc(-n2cccn2)c1 (centres undefined)"
  VAL: -14.6
- COMPOUND: "CC[C@@H](CO)NC(=O)c1coc(COc2ccc(OC)cc2)n1"
  VAL: 15
- COMPOUND: "CN(CCCc1nccn1C)C(=O)C1CCN(C(=O)C2CCCC2)CC1"
  VAL: -15.3
- COMPOUND: "CC(C)COc1cncc(NCC(O)c2ccco2)n1 (centres undefined)"
  VAL: -2.85
- COMPOUND: "O=C(Cc1ccccc1)N1CCC2(CC1)COCCN2CC1CC1"
  VAL: -78.5
- COMPOUND: "CN(C)C(=O)CN1CCC2(CC1)CN(S(C)(=O)=O)Cc1ccccc1O2"
  VAL: 0.56
- COMPOUND: "CC(C)CN1CCCn2nc(CNC(=O)CCN)cc2C1"
  VAL: -20.5
- COMPOUND: "CC(C)NC(=O)c1cc2c(nc1N(C)C)CCN(S(=O)(=O)C1CC1)CC2"
  VAL: -149
- COMPOUND: "CN(C)C1CCCN(C(=O)c2ccc3sc4c(c3c2)CCNC4=O)CC1 (centres undefined)"
  VAL: -8.58
- COMPOUND: "CCCOc1cc(C)c2c(c1C)C[C@H]([C@H](C)C(=O)O)CC2"
  VAL: -4.19

====

Quick reference for cytotoxicity at 10 µM among some molecules
TEST: Toxicity liver stage against HepG2, at 10uM
Type: cell-based
Parameters: test concentration 10 uM, cell line HepG2-A16-CD81EGFP
REPORTED_CONDITIONS: human, HepG2-A16-CD81EGFP cells; read-out: INHIBITION
READOUT: cytotoxicity at 10 µM (%)

- MOLECULE: "CN(C)c1cccc(C(=O)N2CCc3ccc(=O)[nH]c3CC2)c1"
  READOUT: "cytotoxicity at 10 µM"
  VAL: 9.23
- MOLECULE: "Cc1ccnc(C2CN(Cc3cnn(-c4ccccc4C(=O)O)c3)C2)n1"
  READOUT: "cytotoxicity at 10 µM"
  VAL: 6
- MOLECULE: "CC(=O)NCc1cccc(-n2ccnc2-c2cccc(C(=O)O)c2)c1"
  READOUT: "cytotoxicity at 10 µM"
  VAL: -2.29
- MOLECULE: "CCc1noc(C2CCN(C(=O)CCn3nc(C)cc3C)CC2)n1"
  READOUT: "cytotoxicity at 10 µM"
  VAL: -9.52
- MOLECULE: "Cc1cc(N2CCCC2c2nnc3n2CCCCC3)nc(N)n1 (stereo unspecified)"
  READOUT: "cytotoxicity at 10 µM"
  VAL: -10.1
- MOLECULE: "CCn1nc(C)c(NC(=O)CN2CC[C@H](CO)[C@@H](O)C2)c1C"
  READOUT: "cytotoxicity at 10 µM"
  VAL: 0.887
- MOLECULE: "COc1cc(Cl)cc(CN2CCCC(N3CCCC3)C2)c1OC (stereo unspecified)"
  READOUT: "cytotoxicity at 10 µM"
  VAL: -3.88
- MOLECULE: "COc1ccccc1C(O)Cn1cc(C(=O)NCc2ccco2)nn1 (stereo unspecified)"
  READOUT: "cytotoxicity at 10 µM"
  VAL: -6.03
- MOLECULE: "Cc1ccc(N2CC[C@@]3(O)CCN(S(C)(=O)=O)C[C@H]3C2)nn1"
  READOUT: "cytotoxicity at 10 µM"
  VAL: 7.99
- MOLECULE: "CC1CCCN1C1CCN(C(=O)c2cccc(F)c2)CC1 (stereo unspecified)"
  READOUT: "cytotoxicity at 10 µM"
  VAL: 5.93
- MOLECULE: "CCC1=N[C@@]2(CC[C@@H]3CN(C(=O)NCc4ccccc4)C[C@@H]32)C(=O)N1"
  READOUT: "cytotoxicity at 10 µM"
  VAL: -10.3

====

TEST: Toxicity liver stage against HepG2, at 10uM
Assay type: cell-based
Set-up: test concentration 10 uM, cell line HepG2-A16-CD81EGFP
REPORTED_CONDITIONS: human, HepG2-A16-CD81EGFP cells; read-out: INHIBITION
Quick reference for cytotoxicity at 10 µM among some compounds
READOUT: cytotoxicity at 10 µM (%)

- COMPOUND: "CC(C)N1CC2(CCC1=O)CCN(c1ccnc3ccccc13)CC2"
  VAL: 3.2
- COMPOUND: "O=C1CCCN1CCN1CC=C(c2cnn(C3CCS(=O)(=O)C3)c2)CC1 (centres undefined)"
  VAL: -0.36
- COMPOUND: "CCc1nc(CCn2cc(-c3nccn3C)nn2)no1"
  VAL: -55.3
- COMPOUND: "CC(=O)N1C[C@H]2C3(CCN(S(C)(=O)=O)CC3)CC[C@@]2(C(=O)N(C)C)C1"
  VAL: -1.16
- COMPOUND: "CSCC(CCO)NC(=O)c1cccc(Cl)c1F (centres undefined)"
  VAL: 19
- COMPOUND: "COc1ccc(C(O)CNC(=O)NCc2nc(C)cs2)cc1 (centres undefined)"
  VAL: -3.54
- COMPOUND: "CNC(=O)C1(CCCc2ccccn2)CN(Cc2nccn2C)C1"
  VAL: -1.23
- COMPOUND: "NC(=O)CC1CCN(Cc2ccccc2OCC(F)(F)F)CC1"
  VAL: -0.535
- COMPOUND: "COc1cc(C2SC(C)=Nc3c2c(=O)[nH]n3C2CCCC2)ccc1O (centres undefined)"
  VAL: 3.54
- COMPOUND: "Cc1ccc(S(=O)(=O)N(C)c2ccsc2C(=O)NCC(C)C)cc1"
  VAL: 10.6
- COMPOUND: "COCCNC(=O)[C@]12COC[C@H]1CN(C1CCOCC1)C2"
  VAL: -109
- COMPOUND: "CN(CCNS(C)(=O)=O)CC(c1cccs1)N1CCOCC1 (centres undefined)"
  VAL: -3.43
- COMPOUND: "CCCN1CCCN(CCCOc2cccc(C#N)c2)CC1"
  VAL: 18
- COMPOUND: "Cc1ccc2c(n1)N(C)CCN(C(=O)C1CC1)C2"
  VAL: -2.15
- COMPOUND: "CN(Cc1ccccn1)C(=O)c1cc(CN2CCC(O)CC2)on1"
  VAL: 0.852
- COMPOUND: "COc1c(CNC2CCSc3ccc(F)cc32)c(C)nn1C (centres undefined)"
  VAL: 32.8
- COMPOUND: "CS(=O)(=O)CC(=O)NCC1OCCc2cn(CC3CC3)nc21 (centres undefined)"
  VAL: 3.45
- COMPOUND: "CNC(=O)CN1CCN(C(=O)c2ccn(C)c(=O)c2)CC1"
  VAL: -16
- COMPOUND: "c1ccc(-c2nnc3sc(CCN4CCCCCC4)nn23)cc1"
  VAL: 1.11
- COMPOUND: "OCc1cc2ccccc2nc1N1CCCC1"
  VAL: -8.82
- COMPOUND: "CCNc1cc2c(nn1)CCN(C(=O)C1CCc3ccccc31)C2 (centres undefined)"
  VAL: 0.169
- COMPOUND: "Cn1ncc(NC(=O)Cn2ccc(-c3cccc(F)c3)n2)n1"
  VAL: 1.73
- COMPOUND: "OCCN1CCOC2(CCCN(c3cccc(F)c3)C2)C1 (centres undefined)"
  VAL: 2.01
- COMPOUND: "CCN(C)C(=O)Cn1c(-c2ccco2)nn(-c2ccccc2OC)c1=O"
  VAL: 0.832
